READOUT NAME: melting point

Reference set, count: 3
For the compound shown here, "CCCN(CCC)C(=O)c1cc(C(=O)N[C@@H](Cc2ccccc2)[C@H](O)CNCc2cccc(OC)c2)cc(-c2ccccc2)c1.Cl" , give the reported melting point.
214 to 219 °C

For the compound shown here, "CCCN(CCC)C(=O)c1cc(C(=O)N[C@@H](Cc2ccccc2)[C@H](O)CNCc2cccc(OC)c2)cc(-c2ccsc2)c1.Cl" , give the reported melting point.
199 to 201 °C

For the compound shown here, "CCCN(CCC)C(=O)c1cc(C(=O)N[C@@H](Cc2ccccc2)[C@H](O)CNCc2cccc(OC)c2)cc(-c2ccc(OC)cc2)c1.Cl" , give the reported melting point.
205 to 209 °C

Could you now consider this next compound?
For the compound shown here, "CCCN(CCC)C(=O)c1cc(C(=O)N[C@@H](Cc2cc(F)cc(F)c2)[C@H](O)CNCc2cccc(OC)c2)cc(-c2ccccc2)c1.Cl" , give the reported melting point.
230 to 233 °C
